- EXPERIMENTAL_TARGET: human ghrelin receptor (GRLN, growth hormone secretagogue receptor, hGHS-R1a) (Homo sapiens, UniProt Q92847)
- Construct: purchased PerkinElmer BioSignal #RBHGHSM, lot#1887; host or cells: HEK-293 cells, stably transfected (membranes)
- TEST_PROTOCOL: Competitive radioligand binding assay (ghrelin receptor), Method B1
- TEST_PARAMETERS: Ghrelin receptor binding activity, Method B1
REPORTED_METRIC: IC50

Worked examples follow.
Q. Find the recorded IC50 belonging to CCC(C)[C@@H]1NCCOc2ccccc2/C=C/CNC(=O)[C@@H](Cc2ccccc2)NC(=O)[C@H](C(C)O)N(C)C1=O (stereo partly drawn) and report it.
A. 10 to 100 nM

Q. Find the recorded IC50 belonging to CC(C)C1NCCOc2cc(F)ccc2C=CCNC(=O)C(C(C)c2ccccc2)NC(=O)C(C(C)O)N(C)C1=O (stereo not drawn) and report it.
A. 10 to 100 nM

Q. Find the recorded IC50 belonging to CC[C@@H]1C#Cc2ccc(Cl)cc2OCCN[C@@H](C(C)C)C(=O)N(C)[C@@H](C(C)O)C(=O)N[C@H](Cc2c[nH]c3ccccc23)C(=O)N1 (stereo partly drawn) and report it.
A. 10 to 100 nM

Please go through the list and note IC50 for each molecule.
1. CC(O)[C@H]1C(=O)N[C@H](Cc2ccc(F)cc2)C(=O)NCC#Cc2c(F)cccc2OCCN[C@@H](C2(C)CC2)C(=O)N1C (stereo partly drawn)
2. CC[C@@H]1C#Cc2ccc(F)cc2OCCN[C@@H](C(C)C)C(=O)N(C)[C@@H](C(C)O)C(=O)N[C@H](Cc2cccc(F)c2)C(=O)N1 (stereo partly drawn)
3. CC[C@@H]1CCc2ccc(F)cc2OCCN[C@@H](CC(C)(C)C)C(=O)N(C)[C@@H](C(C)O)C(=O)N[C@H](Cc2c[nH]c3ccccc23)C(=O)N1 (stereo partly drawn)

A.
1. 1 to 10 nM
2. 1 to 10 nM
3. > 500 nM

====

- EXPERIMENTAL_TARGET: ghrelin receptor (HEK-GHSR1 stable cells) (Homo sapiens, UniProt Q92847)
- Construct: expressed in transfected cells
- Sequence (Q92847 whole entry): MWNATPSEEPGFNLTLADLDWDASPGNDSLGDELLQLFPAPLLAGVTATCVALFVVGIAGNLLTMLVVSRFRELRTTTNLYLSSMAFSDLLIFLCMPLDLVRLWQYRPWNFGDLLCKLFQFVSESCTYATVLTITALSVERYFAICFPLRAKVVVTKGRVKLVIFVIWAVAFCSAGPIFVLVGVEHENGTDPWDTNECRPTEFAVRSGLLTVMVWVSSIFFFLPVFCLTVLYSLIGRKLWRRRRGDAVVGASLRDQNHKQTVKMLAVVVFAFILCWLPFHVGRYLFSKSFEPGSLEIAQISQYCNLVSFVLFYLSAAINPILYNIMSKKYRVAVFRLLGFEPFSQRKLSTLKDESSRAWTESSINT
- TEST_PROTOCOL: Ghrelin receptor inverse agonist assay (HTRF IP-one), Method B4
- Assay type: cell-based
- TEST_PARAMETERS: inverse agonist at the ghrelin receptor, Method B4
REPORTED_METRIC: IC50

Worked examples follow.
Q. Find the recorded IC50 belonging to CCC(C)C1NCCOc2ccccc2C=CCNC(=O)C(Cc2c[nH]c3ccc(F)cc23)NC(=O)C(C(C)O)N(C)C1=O (stereo not shown) and report it.
A. 0.1 to 0.5 µM

Q. Find the recorded IC50 belonging to CC(O)C1C(=O)NC(Cc2ccccc2)C(=O)NCC2CCc3cccc(c3C2)OCCNC(C2CCCCC2)C(=O)N1C (stereo not shown) and report it.
A. 0.1 to 0.5 µM

Q. Find the recorded IC50 belonging to CCC(C)C1NCCOc2ccccc2CCCNC(=O)C(Cc2ccc(Cl)cc2)NC(=O)C(C(C)O)N(C)C1=O (stereo not shown) and report it.
A. 0.1 to 0.5 µM

Q. Find the recorded IC50 belonging to CCC1CCc2ccc(Cl)cc2OCCNC(C(C)C)C(=O)N(C)C(C(C)O)C(=O)NC(Cc2c[nH]c3ccccc23)C(=O)N1 (stereo not shown) and report it.
A. 0.1 to 0.5 µM

Please go through the list and note IC50 for each molecule.
1. CC(O)[C@H]1C(=O)N[C@H](Cc2ccc(Cl)cc2)C(=O)N[C@H](C)CCc2ccc(F)cc2OCCN[C@@H](C2(C)CC2)C(=O)N1C (stereo partly shown)
2. CCC1CCc2ccc(F)cc2OCCNC(C(C)C)C(=O)N(C)C(C(C)O)C(=O)NC(C(C)c2ccccc2)C(=O)N1 (stereo not shown)
3. CC1CCc2ccccc2OCCNC(C(C)C)C(=O)N(C)C(C(C)O)C(=O)NC(Cc2c[nH]c3ccc(F)cc23)C(=O)N1 (stereo not shown)
4. CCC1CCc2ccc(F)cc2OCCNC(C(C)C)C(=O)N(C)C(C(C)O)C(=O)NC(Cc2ccco2)C(=O)N1 (stereo not shown)
5. CC(C)C1NCCOc2ccccc2C#CCNC(=O)C(Cc2c[nH]c3ccccc23)NC(=O)C(C(C)O)N(C)C1=O (stereo not shown)
6. CC(O)[C@H]1C(=O)N[C@H](Cc2c[nH]c3ccccc23)C(=O)N[C@H](C)CCc2ccc(F)cc2O[C@H](C)CN[C@@H](C2(C)CC2)C(=O)N1C (stereo partly shown)

A.
1. 0.01 to 0.05 µM
2. 0.1 to 0.5 µM
3. 0.01 to 0.05 µM
4. 0.1 to 0.5 µM
5. 0.1 to 0.5 µM
6. 0.1 to 0.5 µM
